Documented GI50 across a set of molecules
test system: HT-29; experiment: NCI tumour cell line growth inhibition, 48 h
Active and inactive are the calls of the source. No stated cut-off is given here; in the data, active = GI50 up to about 1.1 µM and inactive = higher. Where a SMILES comes first, the peptide text is derived from it. The star is where a group is joined. Boc = CC(C)(C)OC(=O)*

Check out these entries, answers already filled in.
[
  {
    "molecule": "Cc1cn(C2CC(n3cncn3)C(C(C)O)O2)c(=O)[nH]c1=O (stereo unspecified)",
    "GI50": "> 100 µM (inactive)"
  },
  {
    "molecule": "Cc1ccc(S(=O)(=O)NC(=O)C#CCOC2CCCCO2)cc1 (stereo unspecified)",
    "GI50": "> 100 µM (inactive)"
  },
  {
    "molecule": "COc1ccc(C2=C(Cl)C(=O)O/C2=C\\c2ccc(OC)c(Br)c2)cc1Cl",
    "GI50": "> 100 µM (inactive)"
  },
  {
    "molecule": "CC(=O)N(C(C)=O)n1c(-c2ccccc2)n[nH]c1=O",
    "GI50": "> 100 µM (inactive)"
  },
  {
    "molecule": "COC(=O)CNC(=O)C(Cc1ccccc1)NC(=O)C(CCSC)NC(=O)C(Cc1ccc(O)cc1)NC(=O)OC(C)(C)C (stereo unspecified) (Boc-YMFG-OMe; configuration not given here)",
    "GI50": "33 µM (inactive)"
  }
]

Shifting focus to the molecule that follows.
Req: I'd like to know its GI50. The molecule in question is "O=S(=O)(N/N=C/c1cccc(Cl)c1Cl)c1ccccc1"
Resp: 99.8 µM (inactive)

---

system: HOP-62; assay: NCI tumour cell line growth inhibition, 48 h
Active and inactive are the calls of the source. No stated cut-off is given here; in the data, active = GI50 up to about 1.1 µM and inactive = higher.
readoutKind: GI50

Check out these entries, answers already filled in.
[
  {
    "compound": "C[N+](C)(C)c1nc(N)nc2c1ncn2C1OC(CO)C(O)C1O (stereo unspecified)",
    "GI50": "> 100 µM (inactive)"
  },
  {
    "compound": "O=C1C(Cl)C(c2cc3cc(Br)ccc3nc2Cl)N1c1ccc(Cl)cc1 (stereo unspecified)",
    "GI50": "9.68 µM (inactive)"
  }
]

Req: I'd like to know its GI50. The compound in question is "COc1ccc(/C=C2\C[C@H]3[C@@H]4CC=C5C[C@@H](O)CC[C@]5(C)[C@H]4CC[C@]3(C)\C2=N\O)cc1"
Resp: 55.6 µM (inactive)

Req: Next record, please: "CC(C)[Si](OC1=C(C(=O)Nc2ccccc2Cl)CCCCC1)(C(C)C)C(C)C"
Resp: > 100 µM (inactive)

Req: Next record, please: CC1(Sc2ccccc2)CN(Cc2ccccc2)C1=O (stereo unspecified)
Resp: > 100 µM (inactive)

Req: Next record, please: "O=C(CSCC(=O)N/N=C/c1ccc2c(c1)OCO2)N/N=C/c1ccc2c(c1)OCO2"
Resp: > 100 µM (inactive)

---

tested on: UO-31; assay: NCI tumour cell line growth inhibition, 48 h
Active and inactive are the calls of the source. No stated cut-off is given here; in the data, active = GI50 up to about 1.1 µM and inactive = higher.
I would appreciate it if you answered using one of these outcomes: true for active, false for inactive

// below: answered compounds
[
  {
    "compound": "COc1ccc(C2OC(=O)c3c2ccc2ccccc32)c(C)c1 (stereo not drawn)",
    "testedTarget": "UO-31",
    "className": "false"
  },
  {
    "compound": "CC(C#N)Nc1ccc(Oc2ccc(C(C)(C)c3ccc(Oc4ccc(NC(C)C#N)cc4)cc3)cc2)cc1 (stereo not drawn)",
    "testedTarget": "UO-31",
    "className": "false"
  },
  {
    "compound": "NN/C(=N\\S(=O)(=O)c1cc2ccccc2s1)Nc1ccc(Cl)cc1",
    "testedTarget": "UO-31",
    "className": "false"
  }
]

Req: Status in this test for COc1ccc([C@H]2CC(=O)N3CCCC3N2)cc1 (stereo partly drawn) ?
Resp: false

Req: Next record, please: "O=C(NCc1ccc(Cl)cc1)c1cc2sccc2nc1C(F)(F)F"
Resp: false

Req: Next record, please: Cc1cc(Cl)ccc1NC(=O)CCCC(=O)C1C/C(=N/O)CC/C1=N\O (stereo not drawn)
Resp: false

Req: Next record, please: "O=C(CN1C(=O)c2ccccc2C1=O)NC1(C(=O)O)CCCC1"
Resp: false

Req: Next record, please: C=CCCCCOC1C=CC(OC(C)=O)C(COC(C)=O)O1 (stereo not drawn)
Resp: false

Req: Next record, please: "Clc1ccccc1-c1nnc2c(-c3ccccc3)nc3ccccc3n12"
Resp: false

Req: Next record, please: COCN1C(N)=C(C(=O)OC(C)(C)C)C2=CC(=O)C=CC21C (stereo not drawn)
Resp: false

Req: Next record, please: CCN1CCC(O)(c2ccc(Oc3ccccc3)cc2)C(C(=O)c2ccc(Oc3ccccc3)cc2)C1 (stereo not drawn)
Resp: false

Req: Next record, please: O=C1C2C3C=C4c5ccccc5N(c5ccccc5)C4([C@@H]2C(=O)N1c1ccc(F)cc1)[C@H]1C(=O)N(c2ccc(F)cc2)C(=O)[C@@H]31 (stereo partly drawn)
Resp: false

Req: Next record, please: "Clc1ccc(Nc2nnc(CNc3ccc(-c4nnc(Nc5ccc(Cl)cc5)o4)cc3)o2)cc1"
Resp: false

Req: Next record, please: CCOC(=O)C1S/C(=N\c2ccc(Cl)c(Cl)c2)N=C1C (stereo not drawn)
Resp: false

Req: Next record, please: "CCOn1c(C2(CC3CCN(C(=O)c4ccccc4)CC3)OCCO2)cc2ccccc21"
Resp: false

Req: Next record, please: COc1cccc2c1C(=O)c1c(O)c3c(c(O)c1C2=O)C[C@@](O)(/C(C)=N/NC(=O)c1ccc(Cl)c(Cl)c1)C[C@@H]3OC1CC(N)C(O)C(C)O1 (stereo partly drawn)
Resp: true

Req: Next record, please: "CC(C)(C)CC(C)(C)c1cc2c(O)c(c1)Cc1cc(C(C)(C)CC(C)(C)C)cc(c1O)Cc1cc(C(C)(C)CC(C)(C)C)cc(c1O)Cc1cc(C(C)(C)CC(C)(C)C)cc(c1O)Cc1cc(C(C)(C)CC(C)(C)C)cc(c1O)Cc1cc(C(C)(C)CC(C)(C)C)cc(c1O)Cc1cc(C(C)(C)CC(C)(C)C)cc(c1O)Cc1cc(C(C)(C)CC(C)(C)C)cc(c1O)C2"
Resp: false

Req: Next record, please: "O=C(O)CSc1ncccc1[N+](=O)[O-]"
Resp: false

Req: Next record, please: c1ccc(C2SCc3nc4cc5ccccc5cc4n32)cc1 (stereo not drawn)
Resp: false

Req: Next record, please: CCOC(=O)C(C)(C)Oc1ccc(Cl)cc1 [CLOFIBRATE]
Resp: false

Req: Next record, please: "CN(NC(=O)CCCl)C1=NCCCCN1"
Resp: false

Req: Next record, please: CC(C)N(C(C)C)S(=O)(=O)C[C@]12CC[C@H](CC13OCC(CS(=O)(=O)c1ccccc1)O3)C2(C)C (stereo partly drawn)
Resp: false

Req: Next record, please: "Cc1noc2cccc(O)c12"
Resp: false

---

system: IGROV-1; test: NCI tumour cell line growth inhibition, 48 h
Calls of active or inactive are those of the source. Cut-off read from the data, not from the text of the source: active = GI50 up to about 1.1 µM and inactive = higher.
readoutKind: GI50

Check out these entries, answers already filled in.
[
  {
    "molecule": "O=C1C(c2c(O)[nH]c3ccc(S(=O)(=O)O)cc23)=Nc2ccccc21",
    "GI50": "> 100 µM (inactive)"
  },
  {
    "molecule": "Clc1ccccc1-c1nnc2c(-c3ccccc3)nc3ccccc3n12",
    "GI50": "> 100 µM (inactive)"
  },
  {
    "molecule": "Sc1nnc(/C=C/c2ccc(Cl)c(Cl)c2)[nH]1",
    "GI50": "> 100 µM (inactive)"
  },
  {
    "molecule": "O=C1CSC(c2ccccc2O)N1c1nc2cc3sc(N4C(=O)CSC4c4ccccc4O)nc3cc2s1 (stereo not given)",
    "GI50": "18.9 µM (inactive)"
  }
]

Shifting focus to the molecule that follows.
Req: I'd like to know its GI50. The molecule in question is CNC(=O)OCC1=C(COC(=O)NC)C(C)N(c2ccccc2)C1 (stereo not given)
Resp: 26.2 µM (inactive)

---

test system: SW-620; experiment: NCI tumour cell line growth inhibition, 48 h
The source made the active and inactive calls. Rule as the data show it: active = GI50 up to about 1.1 µM and inactive = higher.
readoutKind: GI50

Check out these entries, answers already filled in.
[
  {
    "molecule": "CCCCCCCc1ccc(-c2nnc(/N=N/c3ccc(OCCCCC)cc3)s2)s1",
    "assayValue": "> 100 µM (inactive)"
  },
  {
    "molecule": "Cc1ccc2oc(=O)c(C(=O)Nc3nc(C45CC6CC(CC(C6)C4)C5)cs3)cc2c1",
    "assayValue": "> 100 µM (inactive)"
  },
  {
    "molecule": "CNS(=O)(=O)NN(C)S(=O)(=O)c1ccc(OC)cc1",
    "assayValue": "> 100 µM (inactive)"
  }
]

Req: Tell me reported GI50 for "CCOP(=O)(Nc1ccccc1P(=O)(OCC)OCC)OCC" , tested with SW-620.
Resp: > 100 µM (inactive)

Req: Next record, please: CC1(C)CC2C(/C1=N/O)C1(C)CCCC2(C)C1O (stereo not given)
Resp: > 100 µM (inactive)

Req: Next record, please: "Cn1cnc([N+](=O)[O-])c1Sc1nc2cccnc2[nH]1"
Resp: 49.9 µM (inactive)
